Source: ChEMBL document CHEMBL1144257

Below is a list of entries, each paired with its recorded IC50 value.
- System: SK-HEP1
- assay-remarks: Inhibitory concentration against human SK-Hep-1 cells (hepatoma cell line)
- Type: functional, cell-based

Would you please look over these solved cases?
>  <chem-smiles>
CN(Cc1ccccc1)C(=O)CNC(=O)c1cc2cc(Cl)ccc2[nH]1

>  <experimental-system>
SK-HEP1

>  <IC50>
> 10 µM

$$$$
>  <chem-smiles>
O=C(NCC(=O)N(CCO)C1CCS(=O)(=O)CC1)c1cc2cc(Cl)ccc2[nH]1

>  <experimental-system>
SK-HEP1

>  <IC50>
> 30 µM

$$$$

Now for the compound whose IC50 we want.
Q: Value wanted: IC50 (SK-HEP1) of entry O=C(O)CN(C(=O)CNC(=O)c1cc2cc(Cl)ccc2[nH]1)C1CCCC1
A: > 10 µM
